biological target: human TLR2 (Homo sapiens, UniProt O60603); assay: Reporter gene assay: HEK 293 cells stably transfected with human TLR2 and NF-kB-driven luciferase reporter; details: HEK293, 7 h, read-out: Hek-TLR2 (% Eff)
Sequence (O60603 21-784): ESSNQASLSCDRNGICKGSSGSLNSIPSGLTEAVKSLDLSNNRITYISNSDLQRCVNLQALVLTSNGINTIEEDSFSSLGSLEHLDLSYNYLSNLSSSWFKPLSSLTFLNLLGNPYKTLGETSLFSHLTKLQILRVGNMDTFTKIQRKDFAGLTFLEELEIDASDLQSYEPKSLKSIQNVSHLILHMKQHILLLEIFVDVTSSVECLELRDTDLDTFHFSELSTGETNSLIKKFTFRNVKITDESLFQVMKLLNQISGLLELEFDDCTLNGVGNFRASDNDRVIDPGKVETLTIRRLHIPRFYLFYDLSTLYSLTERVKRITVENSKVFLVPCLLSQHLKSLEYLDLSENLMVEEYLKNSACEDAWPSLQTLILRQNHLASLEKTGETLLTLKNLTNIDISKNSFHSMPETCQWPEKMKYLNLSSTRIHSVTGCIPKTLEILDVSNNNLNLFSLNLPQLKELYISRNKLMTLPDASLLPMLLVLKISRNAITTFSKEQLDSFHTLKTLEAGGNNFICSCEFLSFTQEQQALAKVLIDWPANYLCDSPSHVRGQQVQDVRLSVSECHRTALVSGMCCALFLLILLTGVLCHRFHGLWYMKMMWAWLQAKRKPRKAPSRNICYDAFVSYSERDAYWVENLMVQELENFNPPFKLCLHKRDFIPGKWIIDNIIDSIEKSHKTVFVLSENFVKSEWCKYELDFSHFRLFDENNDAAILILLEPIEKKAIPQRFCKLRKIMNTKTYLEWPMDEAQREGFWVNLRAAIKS
Measured Attribute: Emax (%)
One number for each entry, in %.

The cases that follow already have their Emax on record.
Molecule	Measured Attribute	Quantitative Result
CCCCCCCCCCCC(=O)OC[C@H](CSC[C@H](N)C(=O)NCCOCCOCCC(F)(F)P(=O)(O)O)OC(=O)CCCCCCCCCCC [Example 4]	Emax	101
CCCCCCCCCCCCCCCC(=O)N[C@@H](CSC[C@@H](COC(=O)CCCCCCCCCCC)OC(=O)CCCCCCCCCCC)C(=O)NCCOCCOCCOCCP(=O)(O)O [Example 34]	Emax	47
CCCCCCCCCCCCOC[C@H](CSC[C@H](N)C(=O)NCCOCCOCCOCCP(=O)(O)O)NC(=O)CCCCCCCCCCC [Example 26]	Emax	28
CCCCCCCCCCNC(=O)OC[C@H](CSC[C@H](N)C(=O)NCCOCCOCCOCCC(=O)O)OC(=O)NCCCCCCCCCC [Example 37]	Emax	7
CCCCCCCCCCCCCCCC(=O)N[C@@H](CSC[C@@H](COC(=O)CCCCCCCCCCC)OC(=O)CCCCCCCCCCC)C(=O)N[C@@H](C)C(=O)N[C@H](CCC(=O)O)C(N)=O [Example 75]	Emax	58
CCCCCCCCCCCC(=O)OC[C@H](CSC[C@H](N)C(=O)NCCCOCCCCOCCCN)OC(=O)CCCCCCCCCCC [Example 8]	Emax	98
CCCCCCCCCCCCOC[C@H](CSC[C@H](N)C(=O)N[C@@H](CO)C(=O)NCCOCCOCCP(=O)(O)O)NC(=O)CCCCCCCCCCC [Example 81]	Emax	30
CCCCCCCCCCCCOC[C@H](CSC[C@H](N)C(=O)N[C@@H](C)C(=O)NCCOCCOCCP(=O)(O)O)NC(=O)CCCCCCCCCCC [Example 31]	Emax	35

Please state, for each entry, its recorded Emax.
1. CCCCCCCCCCCCOC[C@H](CSC[C@H](N)C(=O)NCCOCCOCCOCCP(=O)(O)O)OC(=O)CCCCCCCCCCC [Example 27]
2. CCCCCCCCCCCC(=O)OC[C@H](CSC[C@H](N)C(=O)NCCOCCC(F)(F)P(=O)(O)O)OC(=O)CCCCCCCCCCC [Example 21]
3. CCCCCCCCCCCC(=O)OC[C@H](CSC[C@H](N)C(=O)NC(Cc1ccccc1)c1ccccc1)OC(=O)CCCCCCCCCCC (some centres unmarked) [Example 67]
4. CCCCCCCCCCCCCCCC(=O)N[C@@H](CSC[C@@H](COC(=O)CCCCCCCCCCC)OC(=O)CCCCCCCCCCC)C(=O)NCCCOCCOCCOCCCNC(=O)CCC1OCCO1 [Example 40]
5. CCCCCCCCCCCC(=O)OC[C@H](CSC[C@H](N)C(=O)NCCCS(=O)(=O)O)OC(=O)CCCCCCCCCCC [Example 84]
6. CCCCCCCC(=O)OC[C@H](CSC[C@H](N)C(=O)NCCOCCOCCOCCP(=O)(O)O)OC(=O)CCCCCCC [Example 23]
7. CCCCCCCCCCCC(=O)OC[C@H](CSC[C@H](N)C(=O)NCCCOCCOCCOCCCN)OC(=O)CCCCCCCCCCC [Example 64]

## Result
1: 77; 2: 122; 3: 64; 4: 25; 5: 72; 6: 73; 7: 124

Please state, for each entry, its recorded Emax.
1. CCCCCCCCCCCC(=O)OC[C@H](CSC[C@H](N)C(=O)NCCOCCP(=O)(O)O)OC(=O)CCCCCCCCCCC [Example 3]
2. CCCCCCCCCCCC(=O)OC[C@H](CSC[C@H](N)C(=O)NC(C)CCC(C)C)OC(=O)CCCCCCCCCCC (some centres unmarked) [Example 74]
3. CCCCCCCCCCCC(=O)OC[C@H](CSC[C@H](N)C(=O)N[C@@H](C)COCCCP(=O)(O)O)OC(=O)CCCCCCCCCCC [Example 14]
4. CCCCCCCCCCCC(=O)OC[C@H](CSC[C@H](N)C(=O)NCCCOCCOCCOCCCNC(=O)C(N)CS)OC(=O)CCCCCCCCCCC (some centres unmarked) [Example 9]

## Result
103
105
153
73

Please state, for each entry, its recorded Emax.
1. CCCCCCCCCCCCCCCCOC[C@H](CSC[C@H](N)C(=O)N[C@@H](CC)C(=O)N[C@H](CCC(=O)O)C(N)=O)OCCCCCCCCCCCCCCCC [Example 10]
2. CCCCCCCCCCCC(=O)NC[C@H](CSC[C@H](N)C(=O)NC1(CO)CC1)NC(=O)CCCCCCCCCCC [Example 12]
3. CCCCCCCCCCCC(=O)OC[C@H](CSC[C@H](N)C(=O)NCCCn1ccnc1)OC(=O)CCCCCCCCCCC [Example 60]
4. CCCCCCCCCCCC(=O)OC[C@H](CSC[C@H](N)C(=O)NCCOCCOCCOCCP(=O)(O)O)OC(=O)CCCCCCCCCCC [Example 18]
5. CCCCCCCCCCNC(=O)OC[C@H](CSC[C@H](NC(C)=O)C(=O)NCCOCCOCCOCCP(=O)(O)O)OC(=O)NCCCCCCCCCC [Example 82]

## Result
72
3.5
119
96
84

Please state, for each entry, its recorded Emax.
1. CCCCCCCCCCCC(=O)OC[C@H](CSC[C@H](N)C(=O)NCCCCCCCCCC(=O)O)OC(=O)CCCCCCCCCCC [Example 42]
2. CCCCCCCCCCCCOC[C@H](CSC[C@H](N)C(=O)NCCOCCOCCOCCC(=O)O)NC(=O)CCCCCCCCCCC [Example 33]

## Result
1. 101
2. 48

###

biological target: human TLR2 (Homo sapiens); experiment: Reporter gene assay: HEK 293 cells stably transfected with human TLR2 and NF-kB-driven luciferase reporter; settings: Hek-TLR2 μM (EC50), HEK 293 stably transfected with human TLR2 and pNifty-Luciferase; 7 hours incubation; concentration giving 50% of maximal signal
Measured Attribute: EC50 (µM)
Answers are plain numbers, in µM.

The cases that follow already have their EC50 on record.
Molecule	Quantitative Result
CCCCCCCCCCCC(=O)OC[C@H](CSC[C@H](N)C(=O)NCCCS(=O)(=O)O)OC(=O)CCCCCCCCCCC [Example 84]	5.56
CCCCCCCCCCCC(=O)OC[C@H](CSC[C@H](N)C(=O)NCCOCCOCCOCCP(=O)(O)O)OC(=O)CCCCCCCCCCC [Example 18]	0.27
CCCCCCCCCCCC(=O)OC[C@H](CSC[C@H](N)C(=O)NCCc1ccc(OCCC(C)C)cc1)OC(=O)CCCCCCCCCCC [Example 44]	8.17

Let us move to another entry and its EC50.
## Task Entry CCCCCCCCCCCC(=O)OC[C@H](CSC[C@H](N)C(=O)NC(C)(C)CO)OC(=O)CCCCCCCCCCC [Example 43] : reported EC50 = ?
## Result 15.5

###

Record form. Attribute: Emax. Fill in for each entry.
target: human TLR2 (Homo sapiens, UniProt O60603); experiment: Reporter gene assay: HEK 293 cells stably transfected with human TLR2 and NF-kB-driven luciferase reporter; settings: HEK293, 7 h, read-out: Hek-TLR2 (% Eff)

The cases that follow already have their Emax on record.
CCCCCCCCCCCCCCCC(=O)N[C@@H](CSC[C@@H](COC(=O)NCCCCCCCCCC)OC(=O)NCCCCCCCCCC)C(=O)NCCOCCOCCOCCP(=O)(O)O 92%
CCCCCCCCCCCCCCCC(=O)N[C@@H](CSC[C@@H](COC(=O)CCCCCCCCCCC)OC(=O)CCCCCCCCCCC)C(=O)N[C@@H](CO)C(=O)NCCOCCOCCOCCC(=O)O 104%
CCCCCCCCCCCCCCCC(=O)N[C@@H](CSC[C@@H](COC(=O)CCCCCCCCCCC)OC(=O)CCCCCCCCCCC)C(=O)NCCOCCOCCOCCC(=O)O 30%
CCCCCCCCCCNC(=O)OC[C@H](CSC[C@H](N)C(=O)NCCOCCOCCOCCP(=O)(O)O)OC(=O)NCCCCCCCCCC 76%
CCCCCCCCCCCCCCCCOC[C@H](CSC[C@H](N)C(=O)NC1(CO)CC1)NC(=O)CCCCCCCCCCC 3.6%

Let us move to another entry and its Emax.
## Task Provide value of Emax for this record tested with human TLR2 (Homo sapiens, UniProt O60603): `CCCCCCCCCCCCOC[C@H](CSC[C@H](N)C(=O)NCCOCCOCCOCCC(=O)O)OCCCCCCCCCCCC`
## Result 78%

###

Record form. Attribute: EC50. Fill in for each entry.
target: human TLR2 (Homo sapiens, UniProt O60603); assay: Reporter gene assay: HEK 293 cells stably transfected with human TLR2 and NF-kB-driven luciferase reporter; settings: Hek-TLR2 μM (EC50), HEK 293 stably transfected with human TLR2 and pNifty-Luciferase; 7 hours incubation; concentration giving 50% of maximal signal
Answers are plain numbers, in nM.

Compound	EC50, nM
CCCCCCCCCCCCOC[C@H](CSC[C@H](N)C(=O)N[C@@H](C)C(=O)NCCOCCOCCP(=O)(O)O)OCCCCCCCCCCCC	920
CCCCCCCCCCCCCCCC(=O)N[C@@H](CSC[C@@H](COC(=O)NCCCCCCCCCC)OC(=O)NCCCCCCCCCC)C(=O)NCCOCCOCCOCCP(=O)(O)O	2640
CCCCCCCCCCCC(=O)OC[C@H](CSC[C@H](N)C(=O)NC(C)CCCN(CC)CC)OC(=O)CCCCCCCCCCC (some centres unmarked)	257
CCCCCCCCCCNC(=O)OC[C@H](CSC[C@H](N)C(=O)NCCOCCOCCOCCP(=O)(O)O)OC(=O)NCCCCCCCCCC [Example 36]	822

Please state, for each entry, its recorded EC50.
1. CCCCCCCCCCCCOC[C@H](CSC[C@H](N)C(=O)NCCOCCOCCC(F)(F)P(=O)(O)O)NC(=O)CCCCCCCCCCC
2. CCCCCCCCCCCCCCCC(=O)N[C@@H](CSC[C@@H](COC(=O)CCCCCCCCCCC)OC(=O)CCCCCCCCCCC)C(=O)N[C@@H](CO)C(=O)NCCOCCOCCOCCC(=O)O
3. CCCCCCCCCCCCOC[C@H](CSC[C@H](N)C(=O)N[C@@H](CO)C(=O)NCCOCCOCCP(=O)(O)O)OCCCCCCCCCCCC
4. CCCCCCCCCCCCOC[C@H](CSC[C@H](N)C(=O)NCCOCCOCCOCCP(=O)(O)O)OC(=O)CCCCCCCCCCC
5. CCCCCCCCCCCCOC[C@H](CSC[C@H](N)C(=O)NCCOCCOCCOCCP(=O)(O)O)NC(=O)CCCCCCCCCCC
6. CCCCCCCCCCCCOC[C@H](CSC[C@H](N)C(=O)N[C@@H](CO)C(=O)NCCOCCOCCP(=O)(O)O)NC(=O)CCCCCCCCCCC

## Result
[770, 4940, 1910, 610, 1750, 1970]

Please state, for each entry, its recorded EC50.
1. CCCCCCCCCCCC(=O)OC[C@H](CSC[C@H](N)C(=O)NCCCCCCN)OC(=O)CCCCCCCCCCC
2. CCCCCCCCCCCC(=O)OC[C@H](CSC[C@H](N)C(=O)N[C@@H](CO)C(=O)NCCOCCOCCOCCC(=O)O)OC(=O)CCCCCCCCCCC
3. CCCCCCCCCCCC(=O)OC[C@H](CSC[C@H](N)C(=O)N[C@@H](C)COCCCP(=O)(O)O)OC(=O)CCCCCCCCCCC
4. CCCCCCCCCCCCOC[C@H](CSC[C@H](N)C(=O)NCCOCCOCCOCCC(=O)O)OCCCCCCCCCCCC

## Result
1: 1220; 2: 9.2; 3: 19.2; 4: 9130

Please state, for each entry, its recorded EC50.
1. CCCCCCCCCCCC(=O)OC[C@H](CSC[C@H](N)C(=O)NC(CC)COC)OC(=O)CCCCCCCCCCC (some centres unmarked)
2. CCCCCCCCCCCC(=O)OC[C@H](CSC[C@H](N)C(=O)NCCCn1ccnc1)OC(=O)CCCCCCCCCCC
3. CCCCCCCCCCCC(=O)OC[C@H](CSC[C@H](N)C(=O)NCCCOCCOCCOCCCNC(=O)C(N)CS)OC(=O)CCCCCCCCCCC (some centres unmarked)
4. CCCCCCCCCCCC(=O)OC[C@H](CSC[C@H](N)C(=O)NCCOCCOCCC(F)(F)P(=O)(O)O)OC(=O)CCCCCCCCCCC
5. CCCCCCCCCCCCOC[C@H](CSC[C@H](N)C(=O)NCCOCCOCCOCCP(=O)(O)O)OCCCCCCCCCCCC
6. CCCCCCCCCCCC(=O)OC[C@H](CSC[C@H](N)C(=O)NCCc1ccc(OCCOCCO)cc1)OC(=O)CCCCCCCCCCC

## Result
71.8
410
247
31
552
15300

Please state, for each entry, its recorded EC50.
1. CCCCCCCCCCCC(=O)OC[C@H](CSC[C@H](N)C(=O)NCCCC(C)(C)CO)OC(=O)CCCCCCCCCCC
2. CCCCCCCCCCCCOC[C@H](CSC[C@H](N)C(=O)N[C@@H](C)COCCOCCOCCP(=O)(O)O)OCCCCCCCCCCCC
3. CCCCCCCCCCCCCCCC(=O)N[C@@H](CSC[C@@H](COC(=O)CCCCCCCCCCC)OC(=O)CCCCCCCCCCC)C(=O)NCCOCCOCCOCCC(=O)O
4. CCCCCCCCCCNC(=O)OC[C@H](CSC[C@H](NC(C)=O)C(=O)NCCOCCOCCOCCP(=O)(O)O)OC(=O)NCCCCCCCCCC

## Result
1: 30700; 2: 1850; 3: 38000; 4: 830
